Target: IRAK4 (Homo sapiens, UniProt Q9NWZ3)
Sequence (Q9NWZ3 1-460): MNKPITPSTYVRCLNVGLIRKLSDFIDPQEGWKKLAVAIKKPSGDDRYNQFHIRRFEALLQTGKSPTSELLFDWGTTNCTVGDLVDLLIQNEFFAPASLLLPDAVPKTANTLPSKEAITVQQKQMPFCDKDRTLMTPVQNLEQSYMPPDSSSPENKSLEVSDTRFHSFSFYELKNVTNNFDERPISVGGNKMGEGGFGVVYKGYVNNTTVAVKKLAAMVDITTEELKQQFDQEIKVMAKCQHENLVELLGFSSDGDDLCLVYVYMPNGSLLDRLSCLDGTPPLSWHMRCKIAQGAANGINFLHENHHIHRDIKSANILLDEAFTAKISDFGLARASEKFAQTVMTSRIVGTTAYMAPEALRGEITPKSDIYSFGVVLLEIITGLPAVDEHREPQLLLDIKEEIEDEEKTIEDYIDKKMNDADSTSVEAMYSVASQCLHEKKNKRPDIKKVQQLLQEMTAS
Experimental Protocol: mRNA display affinity selection against IRAK4, NGS abundance
Type: binding
Design: acids 1-460; NP_057207.2) was purchased from Carna Biosciences; purchased Carna Biosciences (Kobe, Japan)
Settings: IRAK4 selection pulldown (+); Top100 selection hits, NGS

- Sequence Code: "SMLWRRRKYA"
  Target: "IRAK4 (Homo sapiens, UniProt Q9NWZ3)"
  Library fraction: 0.0001
- Sequence Code: "TQRWRARNYK"
  Target: "IRAK4 (Homo sapiens, UniProt Q9NWZ3)"
  Library fraction: 0.006
- Sequence Code: "TQRVRNRCYK"
  Target: "IRAK4 (Homo sapiens, UniProt Q9NWZ3)"
  Library fraction: 0.013
- Sequence Code: "AMSLYWARRRPH"
  Target: "IRAK4 (Homo sapiens, UniProt Q9NWZ3)"
  Library fraction: 0.0028
- Sequence Code: "SQLWNRRLYK"
  Target: "IRAK4 (Homo sapiens, UniProt Q9NWZ3)"
  Library fraction: 0.0009
- Sequence Code: "AQRWRRRCYH"
  Target: "IRAK4 (Homo sapiens, UniProt Q9NWZ3)"
  Library fraction: 0.0008
- Sequence Code: "SIVWKRRIYR"
  Target: "IRAK4 (Homo sapiens, UniProt Q9NWZ3)"
  Library fraction: 0.005
- Sequence Code: "SLLWKRRIMK"
  Target: "IRAK4 (Homo sapiens, UniProt Q9NWZ3)"
  Library fraction: 0.180
- Sequence Code: "SLLWKRRICR"
  Target: "IRAK4 (Homo sapiens, UniProt Q9NWZ3)"
  Library fraction: 0.0006
- Sequence Code: "STRWNNRIWR"
  Target: "IRAK4 (Homo sapiens, UniProt Q9NWZ3)"
  Library fraction: 0.0001
- Sequence Code: "GPLLWNTRIYC"
  Target: "IRAK4 (Homo sapiens, UniProt Q9NWZ3)"
  Library fraction: 0.0001
- Sequence Code: "SVLWKRRIAK"
  Target: "IRAK4 (Homo sapiens, UniProt Q9NWZ3)"
  Library fraction: 0.010
- Sequence Code: "SLLWKRRVYT"
  Target: "IRAK4 (Homo sapiens, UniProt Q9NWZ3)"
  Library fraction: 0.0002
- Sequence Code: "SQLYKRRIWM"
  Target: "IRAK4 (Homo sapiens, UniProt Q9NWZ3)"
  Library fraction: 0.0001
- Sequence Code: "SLLWKQRVWK"
  Target: "IRAK4 (Homo sapiens, UniProt Q9NWZ3)"
  Library fraction: 0.005
- Sequence Code: "SVCWKRRNCH"
  Target: "IRAK4 (Homo sapiens, UniProt Q9NWZ3)"
  Library fraction: 0.0002
- Sequence Code: "SRLWRRRIYH"
  Target: "IRAK4 (Homo sapiens, UniProt Q9NWZ3)"
  Library fraction: 0.009
- Sequence Code: "SLYWKSRIWR"
  Target: "IRAK4 (Homo sapiens, UniProt Q9NWZ3)"
  Library fraction: 0.0026
- Sequence Code: "SMLFKRRIYK"
  Target: "IRAK4 (Homo sapiens, UniProt Q9NWZ3)"
  Library fraction: 0.211
- Sequence Code: "SVLWRKRIYR"
  Target: "IRAK4 (Homo sapiens, UniProt Q9NWZ3)"
  Library fraction: 0.0037
